system: PXR homodimer (NR concentration 270 nM); experiment: PBM binding z-score (relative to random genomic background probes); higher = stronger binding; sequences stand for … in GC…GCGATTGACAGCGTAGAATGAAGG
Please mark Fulfilled if the recorded PBM binding z-score is equal to or greater than 0.3, and Not fulfilled if it falls below.

Entry "TCTGCTAGGTCAACGATGGTCAGGTAATCTGCTA" : is its PBM binding z-score no less than 0.3?
Not fulfilled

Kindly determine if PBM binding z-score recorded for "ATCTCTAGGTATAGTTCAGTGAAAGATCGATAGA" is above or exactly 0.3.
Fulfilled

Kindly determine if PBM binding z-score recorded for "AGTCAAAGTTCAGGAAGAGGTAACGTAAAGCACG" is above or exactly 0.3.
Fulfilled

Is PBM binding z-score at least 0.3? Consider "CCTACTGGGCCAGAAAGGTCATTGATGCCGATAA"
Fulfilled

Reported PBM binding z-score reaches at least 0.3 for "CCTTACGGGTCAAGGCTATAGCACGGGTGGTACG" ?
Not fulfilled

Does PBM binding z-score meet or surpass 0.3 for "ACTCTTAGTTGACTTAGGGCAACCGATACGACGC" ?
Not fulfilled

Does the reported PBM binding z-score for "TCTAGCAGGCCAGAGGGTCTCTCAAGAGGTACGG" fall at or above the 0.3 mark?
Not fulfilled

Does PBM binding z-score meet or surpass 0.3 for "GATACAGGGTCAGCTAGACGCCAGAGTATGGAAA" ?
Not fulfilled

# check: PBM binding z-score of "TAGCCTAGGTCATTCAGGGTCCAGTATAGAAAGC" is greater than or equal to 0.3
Fulfilled

Check if PBM binding z-score >= 0.3 (inclusive). Item: "ATCGAAAGGTCGCCGAGGTGAGTATACACCGTTT"
Fulfilled

Record "CCTTACGGGTCACGAGGTTATATCACGACGAGCG" ; criterion: PBM binding z-score no lower than 0.3. Met?
Fulfilled

Could you tell me if the measured PBM binding z-score of "CCTACTGGGCCAAAGATCATTGATTCCAATGCTC" reaches 0.3 or more?
Not fulfilled

###

tested on: PPARg:RXRa IVT, anti-PPARg (NR concentration 270 nM, RXRa partner concentration 90 nM); assay: PBM binding z-score (relative to random genomic background probes); higher = stronger binding; sequences stand for … in GC…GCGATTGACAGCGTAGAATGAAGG
Cut-off 2 on PBM binding z-score, inclusive. At or above means satisfied; below means not satisfied.

Check this sequence for PBM binding z-score at or above 2: "TCTGCTAGGTCAACGATGGTCAGCTTATCTGCTA"
satisfied

Is PBM binding z-score for "TCATATAGGTAATACAGTTGAAAGTCGGCATCTA" at or above 2?
satisfied

Is it the case that "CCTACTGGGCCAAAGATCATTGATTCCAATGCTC" has PBM binding z-score reaching or exceeding 2?
satisfied

Is PBM binding z-score at least 2? Consider "CAAACTAGGTGAAGGTCAAAGTCGGTTTGTGCCA"
satisfied

Given the entry "ATATGTAGGTTAAATCCGGGTCATTCAGGCTATG" , answer whether its PBM binding z-score meets or surpasses 2.
satisfied

API: above_or_equal(metric=PBM binding z-score, cutoff=2) for item "AGAACGAGGGCACGCCGAGTTGATAGCAGAGTAG"
satisfied

PBM binding z-score >= 2 for "CAACCTAGGTCAAGGTCAAAGTCGGTTTGTGCCA" ?
satisfied

Say whether "CCTATTAGTTGAACATAAGGGCAACCGAAGCTCG" shows PBM binding z-score of 2 or more.
not satisfied

Please check the record "ATCTCTGGGTAAAGTTCAGTGAAAGATCGATAGA" and state if its PBM binding z-score is at or above 2.
satisfied

Hi team, for "GCGTCTGGGGCATCAGCAGGTTACCATAACTTAA" , is the recorded PBM binding z-score at or above 2?
not satisfied

Reported PBM binding z-score reaches at least 2 for "ACAGACAGGTGAGTGAAGGTAAGTCAGCTGGACG" ?
not satisfied

Please tell me: is the sequence "ACTATTAGTTGACTTAGGGCAATCGATACGACGC" at or over 2 in terms of PBM binding z-score?
not satisfied
